# test.system: ZNF721 DBD2 (Homo sapiens, UniProt Q8TF20-2 395-923)
# Sequence (Q8TF20 383-911): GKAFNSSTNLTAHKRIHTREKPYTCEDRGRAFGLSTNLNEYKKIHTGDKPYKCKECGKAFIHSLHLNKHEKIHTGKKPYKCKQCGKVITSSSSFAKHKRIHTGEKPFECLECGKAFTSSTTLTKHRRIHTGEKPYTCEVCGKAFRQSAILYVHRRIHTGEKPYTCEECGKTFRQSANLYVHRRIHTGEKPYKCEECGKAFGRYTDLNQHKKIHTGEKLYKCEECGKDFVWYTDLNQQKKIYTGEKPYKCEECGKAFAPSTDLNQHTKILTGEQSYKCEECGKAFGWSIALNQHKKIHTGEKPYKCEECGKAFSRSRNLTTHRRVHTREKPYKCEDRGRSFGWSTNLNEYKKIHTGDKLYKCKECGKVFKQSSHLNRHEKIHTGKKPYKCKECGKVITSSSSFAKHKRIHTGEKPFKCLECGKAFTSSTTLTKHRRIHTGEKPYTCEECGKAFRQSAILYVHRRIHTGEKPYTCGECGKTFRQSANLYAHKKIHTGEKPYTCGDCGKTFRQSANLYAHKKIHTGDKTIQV
# assay.method.text: HT-SELEX; 20 mM HEPES pH 7, 140 mM KCl, 5 mM NaCl, 1 mM K2HPO4, 2 mM MgSO4, 100 uM EGTA, ZnSO4, 0.1% Tween20; room temperature, 1 h; high values mean tight binding
# conditions: protein: ivt; tags: eGFP (N-terminal); dsDNA, one strand shown
readout.label: log10 binding signal (log10 of the value in relative 10-mer count)
Base-10 log of binding signal, unit relative 10-mer count.

INPUT: Kindly indicate its recorded log10 binding signal. Item: GCCCCCCTCC
OUTPUT: -2.58

INPUT: Kindly indicate its recorded log10 binding signal. Item: AAAAAGCATC
OUTPUT: -1.65

INPUT: Kindly indicate its recorded log10 binding signal. Item: CCCAACCACC
OUTPUT: -2.27

INPUT: Kindly indicate its recorded log10 binding signal. Item: AAACAGCATG
OUTPUT: -0.46

INPUT: Kindly indicate its recorded log10 binding signal. Item: CCCCAACACC
OUTPUT: -2.49

INPUT: Kindly indicate its recorded log10 binding signal. Item: CCCACTCCCC
OUTPUT: -2.43

INPUT: Kindly indicate its recorded log10 binding signal. Item: AGCATACCCA
OUTPUT: -0.44

INPUT: Kindly indicate its recorded log10 binding signal. Item: AAAAGCTATC
OUTPUT: -2.77

INPUT: Kindly indicate its recorded log10 binding signal. Item: AAAAAGCAGC
OUTPUT: -0.32

INPUT: Kindly indicate its recorded log10 binding signal. Item: CCCCATCCCC
OUTPUT: -2.44

INPUT: Kindly indicate its recorded log10 binding signal. Item: CCTCCCTCCC
OUTPUT: -2.32

INPUT: Kindly indicate its recorded log10 binding signal. Item: AAGCTATCCC
OUTPUT: -2.92

INPUT: Kindly indicate its recorded log10 binding signal. Item: CCCCCCTACC
OUTPUT: -2.44

INPUT: Kindly indicate its recorded log10 binding signal. Item: AACAGAGTAC
OUTPUT: -0.78

INPUT: Kindly indicate its recorded log10 binding signal. Item: CCCCCCCACA
OUTPUT: -2.13

INPUT: Kindly indicate its recorded log10 binding signal. Item: GCCCCACCCA
OUTPUT: -2.29

INPUT: Kindly indicate its recorded log10 binding signal. Item: CACCGCCCCC
OUTPUT: -2.52

INPUT: Kindly indicate its recorded log10 binding signal. Item: CCACCCCCAA
OUTPUT: -2.31

INPUT: Kindly indicate its recorded log10 binding signal. Item: ACCCCCCCGC
OUTPUT: -2.52

INPUT: Kindly indicate its recorded log10 binding signal. Item: CCCTCCACCC
OUTPUT: -2.14
